Give OD450 for every item shown.
# test-system: T1, human MSLN-R3-his protein (human, UniProt Q13421 487-598)
# T1 construct: also called human MSLN-R3 protein; hMSLN-R3-his; not shown: His tag
# T1 sequence (Q13421 495-606): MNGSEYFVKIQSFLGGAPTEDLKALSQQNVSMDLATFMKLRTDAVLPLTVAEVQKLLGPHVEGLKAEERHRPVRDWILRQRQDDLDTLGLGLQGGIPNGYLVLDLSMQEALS
# assay: ELISA, coated antigen; antibody 0.01 nM
Write the value in OD450 as a bare number.

Problem: What value of OD450 has been reported for the following binder? S009-F3.45.21 (antibody, human IgG1, kappa, V domains shown, Human-murine chimeric antibody, human IgG1/kappa constant regions) VH: DVQLQESGPGLVKPSQSLSLTCSVTGDSITSGYYWNWIRQFPGNKLEWMGFIRFDGTNNYNPSLKNRISITRDTSKNQFFLKLNSVTTEDTATYYCAREGSYAPAWFAYWGQGTLVTVSA VL: QIVLTQSPAIMSASPGEKVTMTCSASSSLSYMYWYQQKPGSSPRLLIYDTSNLASGVPVRFSGSGSGTSYSLTISRMEAEDAATYYCQQWSSYPPTFGGGTKLEIKR
Solution: 0.07

Problem: What value of OD450 has been reported for the following binder? S009-F3.7.3 (antibody, human IgG1, kappa, V domains shown, Human-murine chimeric antibody: murine VH/VL on human IgG1 heavy chain constant region and human kappa constant region) VH: EVNFEESGGGLVQPGGSMKLSCVASGFTFSNYWMNWVRQSPEKGLEWVAQIRLKSDNYATHYAESVKGRFTISRDDFKSSVYLQMNNLRAEDTGIYYCTVGTGGYWGQGTTLTVSS VL: DIVLTQSPASLAMSLGKRATISCRASESVSIVGTNVIHWFQQKPGQPPKLLIYHASNLETGVPARFSGSGSGTDFTLTIDPVEEDDVAIYHCLQSRKIPWTFGGGTKLEIKR
Solution: 0.43

Problem: What value of OD450 has been reported for the following binder? S009-F3.74.20 (antibody, human IgG1, kappa, V domains shown, Human-murine chimeric antibody, human IgG1/kappa constant regions) VH: RVQLQQSGAELVRPGASVTLSCKASGYTFTDSEMHWVKQTPVHGLEWIGAIDPEIDGTAYNQNFRDKAILTADKSSSTAYMELRSLTSEDSAVYYCTTYFGSGYGYFDVWGTGTTVTVSS VL: DVVMTQTPLSLSVSLGDQASISCRSSQSLVYSNGNTYLHWFLQKPGQSPKLLIYKVSNRFSGVPDRFSGSGSGTDFTLKINRVEAEDLGVYFCSQSTHIPFTFGAGTKLELKR
Solution: 0.29
